Origin of values: the supplement of paper PMC10567573

B1: FAM9B (parent)
chain: EDLTAKRKRMKMDKTCSKTKNKSK

Variants of: B1
Protocol Notes: protein stability index of a GFP-peptide fusion (GPS, HEK-293T) (PSI 1-6); higher = more stable;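 also: lentivirally expressed fusions sorted by FACS into six bins by GFP to DsRed ratio, PSI derived from sequencing read proportions per bin multiplied by bin number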
Assay Conditions: c terminus: a fixed tail appended
Assay Readout: protein stability index
// keep it numeric: no unit symbol after the value

Solved cases (5 shown):
| Var | Endpoint Value |
| --- | --- |
| K20G | 5.06 |
| A5Q | 4.71 |
| N21E | 5.44 |
| M12D | 5.18 |
| R7Y | 5.11 |

Looking for the measured protein stability index of R7Q , can you help?
5.32

Same question, K20P this time
4.75

Same question, M10Y this time
4.94

Same question, K6E this time
5.7

Same question, T15P this time
5

Same question, K14V this time
5.07

Same question, M12T this time
5.54

Same question, M10S this time
5.43

Same question, D13K this time
4.7

Same question, R9I this time
4.08

Same question, T19F this time
5.29

Same question, T15C this time
5.36

Same question, E1H this time
4.87

Same question, N21C this time
4.95

Same question, R9K this time
5.33

Same question, T4S this time
4.74

Same question, K20C this time
4.57

Same question, D2F this time
3.65

Same question, S17P this time
4.93

Same question, K8R this time
5.15
